Tested on: AMPA-R
method-summary: [3H]AMPA radioligand binding assay on rat brain synaptic membranes;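 further: competition binding in which test compounds at rising concentrations displace [3H]AMPA from AMPA-R on rat brain synaptic membranes, with reduced bound radioligand as read-out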
conditions: Experiment #3, 0.1 uM
property-name: % Inhibition @ 0.1 uM (%)
Entry rule: numbers only, all in %.

Param item = AECETEGSTEAASGSCMAFCFUFUMUSCS (ACTGTAAGCACUUUC; S-cEt, 2'-MOE, 2'-F, 2'-OMe modifications; modified_base 3 OTHER; thymine; modified_base 5 OTHER; misc_feature 1..15 Synthetic: RG-NG-1018; modified_base 1..3 OTHER; 2'-O-methoxyethyl nucleoside; modified_base 4 OTHER; S-constrained ethyl nucleoside; modified_base 7..8 OTHER; modified_base 9 OTHER; 2'-O-methyl nucleoside; modified_base 10..12 OTHE) ; retrieve measured % Inhibition @ 0.1 uM.
3
